Tested on: Demodex folliculorum
Assay notes: In vitro killing of live Demodex on epilated eyelashes, observed by light microscopy over 90 minutes
Run parameters: reagent at 50%; value 90 denotes no effect
Measured Average Time to Death by item
// units = min; emit number, no label

Worked cases, Average Time to Death given:
[
  {
    "Molecule": "CCOCCOCCO [Transcutol]",
    "Average Time to Death, min": 35
  },
  {
    "Molecule": "CC(C)=O",
    "Average Time to Death, min": 82.5
  }
]

**Q:** Recall the recorded Average Time to Death for CCO with Demodex folliculorum and state it.
**A:** 33.64

**Q:** Recall the recorded Average Time to Death for CC#N with Demodex folliculorum and state it.
**A:** 31.43

* * *

Measured Kill Rate by item
Test system: Demodex folliculorum
Assay notes: In vitro killing of live Demodex on epilated eyelashes, observed by light microscopy over 90 minutes
Run parameters: reagent at 50%; 90 min observation, checks every 5 min
Method: In Vitro Activity of Tapinarof Based Formulations in Killing Demodex folliculorum The purpose of this study is to evaluate the effectiveness of a composition comprising Tapinarof in killing Demodex for clinical treatment. […] Epilated lashes were then placed onto a glass slide and the number of live organisms under light microscopy was then recorded. […] Organism death was recorded when all rotary movement of Demodex appendages ceased. […]
// units = %; emit number, no label

**Q:** Recall the recorded Kill Rate for CC#N [Acetonitrile] with Demodex folliculorum and state it.
**A:** 88

**Q:** Recall the recorded Kill Rate for CC(C)=O [Acetone] with Demodex folliculorum and state it.
**A:** 33

**Q:** Recall the recorded Kill Rate for CCOCCOCCO [Transcutol] with Demodex folliculorum and state it.
**A:** 100

**Q:** Recall the recorded Kill Rate for CC(C)O [Isopropyl alcohol] with Demodex folliculorum and state it.
**A:** 0

**Q:** Recall the recorded Kill Rate for CCO [Ethanol] with Demodex folliculorum and state it.
**A:** 100

Where do the numbers come from? From patent US20220071924A1.
